target: T1, human PTEFb (CDK9/Cyclin T1) (Homo sapiens, UniProt P50750); experiment: Surface Plasmon Resonance PTEFb; format: binding; conditions: 25° C., Parameters B; 1/koff
T1 construct: purchased ProQinase, Freiburg, Germany
T1 sequence (P50750 whole entry): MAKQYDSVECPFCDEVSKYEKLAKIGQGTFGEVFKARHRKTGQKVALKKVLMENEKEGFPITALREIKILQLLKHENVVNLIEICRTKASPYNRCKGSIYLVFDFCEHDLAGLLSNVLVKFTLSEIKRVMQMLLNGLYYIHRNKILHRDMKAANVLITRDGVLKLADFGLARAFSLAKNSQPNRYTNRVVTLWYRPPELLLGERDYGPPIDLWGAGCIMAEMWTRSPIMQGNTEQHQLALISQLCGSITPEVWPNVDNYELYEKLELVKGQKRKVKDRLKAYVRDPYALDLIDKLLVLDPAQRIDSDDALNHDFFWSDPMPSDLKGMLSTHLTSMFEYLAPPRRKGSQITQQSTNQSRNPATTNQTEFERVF
T1 sequence (O60563 whole entry partner): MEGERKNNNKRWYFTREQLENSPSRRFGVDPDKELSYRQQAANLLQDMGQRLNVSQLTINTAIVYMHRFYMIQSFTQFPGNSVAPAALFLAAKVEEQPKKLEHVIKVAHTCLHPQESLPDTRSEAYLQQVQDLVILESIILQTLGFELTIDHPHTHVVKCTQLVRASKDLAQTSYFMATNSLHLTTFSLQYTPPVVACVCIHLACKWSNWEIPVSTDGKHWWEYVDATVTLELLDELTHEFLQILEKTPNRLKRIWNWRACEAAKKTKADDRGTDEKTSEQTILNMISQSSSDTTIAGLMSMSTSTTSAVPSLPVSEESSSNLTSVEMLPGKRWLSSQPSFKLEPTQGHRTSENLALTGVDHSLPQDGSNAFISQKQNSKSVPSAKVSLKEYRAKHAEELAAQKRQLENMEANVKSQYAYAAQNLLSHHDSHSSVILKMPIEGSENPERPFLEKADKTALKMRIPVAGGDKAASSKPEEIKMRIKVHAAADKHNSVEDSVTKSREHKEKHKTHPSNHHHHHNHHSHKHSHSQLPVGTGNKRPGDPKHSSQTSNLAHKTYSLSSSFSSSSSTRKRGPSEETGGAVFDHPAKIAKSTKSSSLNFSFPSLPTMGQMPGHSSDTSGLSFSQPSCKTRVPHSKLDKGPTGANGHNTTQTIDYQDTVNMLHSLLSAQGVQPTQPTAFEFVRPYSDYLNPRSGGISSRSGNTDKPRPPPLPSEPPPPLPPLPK
Marks after values point to notes of the source that are not given here.
observed-property: Target resident time

Which Target resident time value belongs to CS(=N)(Cc1cc2nc(c1)OCCCOc1cc(F)ccc1-c1cc(ncc1F)N2)=NC#N (racemic) ?
> 666 min

Which Target resident time value belongs to CS(=N)(=N)Cc1cc2nc(c1)OCCCOc1cc(F)ccc1-c1cc(ncc1F)N2 ?
> 666 min

Which Target resident time value belongs to CS(=N)(=N)Cc1cc2cc(c1)OCCCCOc1c(ccc(F)c1F)-c1nc(ncc1F)N2 ?
9* min

Which Target resident time value belongs to CS(=N)(Cc1cc2nc(c1)OCCCOc1cc(F)ccc1-c1cc(ncc1F)N2)=NCCCO (racemic) ?
> 666 min

* * *

assay: Caco-2 permeation assay; type: in vitro ADME; conditions: human, Caco-2, pH 7.2; test compound 2 μM; read-out: Efflux ratio (Papp B-A/Papp A-B)
observed-property: efflux ratio at 2 h, 2 μM
// return just the number, without any unit appended

Which efflux ratio at 2 h, 2 μM value belongs to CS(=N)(=N)Cc1cc2cc(c1)OCCCCOc1c(ccc(F)c1F)-c1nc(ncc1F)N2 ?
4.8

Which efflux ratio at 2 h, 2 μM value belongs to CS(=N)(=N)Cc1cc2nc(c1)OCCCOc1cc(F)ccc1-c1cc(ncc1F)N2 ?
1.4

Which efflux ratio at 2 h, 2 μM value belongs to CS(=N)(=N)Cc1cc2cc(c1)OCCCCOc1cc(F)ccc1-c1nc(ncc1F)N2 ?
5

Which efflux ratio at 2 h, 2 μM value belongs to CS(=N)(Cc1cc2nc(c1)OCCCOc1cc(F)ccc1-c1cc(ncc1F)N2)=NCCCO (racemic) ?
23.2

* * *

assay: Thermodynamic solubility in water from powder (Method 4b); assay type: physicochemical; settings: phosphate buffer, aqueous buffer, thermodynamic from solid; pH 6.5, Method 4b
observed-property: solubility thermodynamic at 24 h (µg/mL)
The reply should contain only the number, in µg/mL.

Which solubility thermodynamic at 24 h value belongs to CS(=N)(=N)Cc1cc2cc(c1)OCCCCOc1cc(F)ccc1-c1nc(ncc1F)N2 ?
58

* * *

molecular target: CDK9/CycT1 (Homo sapiens); construct: Recombinant full-length His-tagged human CDK9 and CycT1; His; purchased Invitrogen PV4131; host or cells: insect cells; experiment: CDK9/CycT1 kinase assay (Method 1a, TR-FRET, 10 μM ATP); type: biochemical; conditions: Method 1a, 10 μM ATP
Sequence (P50750 whole entry): as the sequence (P50750 whole entry) above
Sequence (O60563 whole entry partner): as the sequence (O60563 whole entry partner) above
Please provide measured IC50 for the entries that follow.
The reply should contain only the number, in nM.

Which IC50 value belongs to CS(=N)(Cc1cc2nc(c1)OCCCOc1cc(F)ccc1-c1cc(ncc1F)N2)=NCCCO (racemic) [Example 2] ?
2.9

Which IC50 value belongs to CS(=N)(=N)Cc1cc2cc(c1)OCCCCOc1c(F)cccc1-c1nc(ncc1F)N2 [Example 7] ?
5.6

Which IC50 value belongs to CS(=N)(=N)Cc1cc2cc(c1)OCCCCOc1c(ccc(F)c1F)-c1nc(ncc1F)N2 [Example 6] ?
8.2

Which IC50 value belongs to CS(=N)(=N)Cc1cc2nc(c1)OCCCOc1cc(F)ccc1-c1cc(ncc1F)N2 [Example 1] ?
3.3

Which IC50 value belongs to CS(=N)(=N)Cc1cc2nc(c1C#N)OCCCOc1cc(F)ccc1-c1cc(ncc1F)N2 [Example 8] ?
3.7

Which IC50 value belongs to CS(=N)(=N)Cc1cc2cc(c1)OCCCCOc1cc(F)ccc1-c1nc(ncc1F)N2 [Example 5] ?
3.4

Which IC50 value belongs to CN=S(C)(=N)Cc1cc2nc(c1)OCCCOc1cc(F)ccc1-c1cc(ncc1F)N2 (racemic) [Example 4] ?
9.2

Which IC50 value belongs to CS(=N)(Cc1cc2nc(c1)OCCCOc1cc(F)ccc1-c1cc(ncc1F)N2)=NC#N (racemic) [Example 3] ?
2.9

Which IC50 value belongs to CS(=N)(Cc1cc2cc(c1)OCCCCOc1cc(F)ccc1-c1nc(ncc1F)N2)=NC1CC1 (racemic) [Example 9] ?
3.6
